# credit: PubChem BioAssay

Examples of compounds with documented viability follow.
METHOD SUMMARY: growth inhibitors of H69AR lung tumor, primary screen, human, duplicate replicates (AID 580);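 note: 100% = mean luminescence of untreated wells and 0% = no signal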
CONDITION DESCRIPTION: H69AR lung tumor cells viability, ATP luminescence, 72 h; at 10 µM; stronger effect = lower value
Only the number, expressed in %, is required.

viability for `Fc1cccc2sc(Nc3nnc(-c4ccco4)o3)nc12` is 41.2

viability for Cc1c(NC(=O)c2cnn3c2NC(c2ccco2)CC3C(F)(F)F)c(=O)n(-c2ccccc2)n1C (stereo not given) is 103

viability for `COc1ccc(CN2C(=O)[C@@H]3C(c4ccc(F)cc4)=NO[C@@H]3C2=O)cc1` is 89.1

viability for `COc1cc2c(cc1OC)CN(CC(=O)Nc1cccc(C)c1)CC2` is 93.1

Query compound follows.
viability for `Cc1cnc(C(=O)NCCc2ccc(S(=O)(=O)NC(=O)NC3CCCCC3)cc2)cn1` is 89.3

----------
METHOD SUMMARY: reversal of MRP1-mediated doxorubicin resistance, pilot screen, H69AR cells, doxorubicin co-treatment (AID 601)
CONDITION DESCRIPTION: H69AR cells, CellTiter-Glo, 72 h; compound alone cytotoxicity; at 10 µM
ENDPOINT: viability (%)
Only the number, expressed in %, is required.

Completed entries (count: 5):
viability for `Cc1csc2ncc(C(=O)Nc3ccccc3Cl)c(=O)n12` is 48.3

viability for `CN1CCN(c2ncnc3c2cnn3-c2ccc(Cl)cc2)CC1` is 89.3

viability for `O=C(c1csc2ccccc12)N1CCCCCC1` is 104

viability for O=C(NC1(C(F)(F)F)C(=O)Nc2c1c(=O)[nH]c(=O)n2Cc1ccco1)C1CCCCC1 (stereo unspecified) is 97.9

viability for `Cc1nnc(NC(=O)CCC(=O)N2CCC(C)CC2)s1` is 90.8

Query molecule follows.
viability for `O=C(NCc1ccc(F)cc1)c1cc(-c2ccco2)on1` is 92.5

----------
Examples of molecules with documented viability follow.
METHOD SUMMARY: reducers of endogenous Her2 protein level, primary screen, SKBR3 breast tumor cells, AlphaScreen, ATP viability (AID 461);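 for viability: percent of carrier control wells set as 100% viability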
CONDITION DESCRIPTION: 18-24 h, measured here: SKBR3 viability, ATP luminescence, at 10 µM
Only the number, expressed in %, is required.

Completed entries (count: 5):
viability for `Cn1c(=O)[nH]c(=O)c2c1nc(CN1CCN(c3cccc(Cl)c3)CC1)n2CCc1ccccc1` is 75

viability for `COc1ccc(C(=O)CSc2nc(C)cc(=O)[nH]2)cc1` is 99.5

viability for `CCOC(=O)c1c(N)nn(C(=O)C(C)C)c1-c1ccccc1` is 97

viability for Cn1c(=O)cc(SCC(=O)NCC2CCCO2)c2ccc(Cl)cc21 (stereo unspecified) is 88.5

viability for `Cn1c(=O)c(C(=S)NC(=O)C2CC2)c(N)n(Cc2ccccc2)c1=O` is 70.5

***
viability for `CC(=O)Nc1ccc(S(=O)(=O)n2cnc(C)c2)cc1` is 91

----------
METHOD SUMMARY: 384-well plate pilot, post-Golgi transport modulator project, inhibition of yeast transport mutant growth (AID 636)
CONDITION DESCRIPTION: absorbance 615 nm, about 18 h, stronger effect = higher value
ENDPOINT: inhibition (%)
Only the number, expressed in %, is required.

Completed entries (count: 3):
inhibition for CN(C(=O)C1CCOC1)c1nnc(-c2cccnc2)s1 (stereo unspecified) is -1.23

inhibition for `c1ccc(-c2cc(N3CCCCC3)ncn2)cc1` is -7.26

inhibition for O=C(C1CCCN(S(=O)(=O)c2cccc3nonc23)C1)N1CCC(Cc2ccccc2)CC1 (stereo unspecified) is -4.21

***
inhibition for `Cc1ccc(S(=O)(=O)N2CCN(C(=O)CSC3CCCC3)CC2)c(C)c1` is -9.59

inhibition for O=C(C1CCCCC1)N1CC(=O)N2CCc3ccccc3C2C1 (stereo unspecified) is -0.91

----------
Examples of compounds with documented differential viability (reversal) follow.
METHOD SUMMARY: reversal of MRP1-mediated doxorubicin resistance, pilot screen, H69AR cells, doxorubicin co-treatment (AID 601)
CONDITION DESCRIPTION: H69AR cells + 2 uM doxorubicin, CellTiter-Glo, 72 h; at 10 µM; stronger effect = higher value
Only the number, expressed in %, is required.

Completed entries (count: 4):
differential viability (reversal) for COc1ccc2c(c1)C1(Nc3ccccc3-c3nc4ccccc4n31)C(=O)N2 (stereo not given) is -3.61

differential viability (reversal) for Cc1ccc(C(O)c2nc3ccccc3n2C(C)C)cc1 (stereo not given) is 3.7

differential viability (reversal) for `O=C(CSc1nnnn1C1CCCC1)N1CCN(C(=O)c2ccco2)CC1` is 1.94

differential viability (reversal) for `CCOC(=O)c1c(NC(=O)COC(=O)c2c(C)noc2C)sc2c1CCC2` is 0.845

***
differential viability (reversal) for COc1ccc(-c2nnc(SCC(=O)Nc3sc4c(c3C#N)CCC4)n2CC2CCCO2)cc1 (stereo not given) is 19.5

differential viability (reversal) for CN(C)S(=O)(=O)c1ccc(C(=O)N2CCCC2c2nc3ccccc3s2)cc1 (stereo not given) is 1.97

differential viability (reversal) for `CCOC(=O)COc1ccc(S(=O)(=O)N2CCc3ccccc3C2)cc1` is 13.7

differential viability (reversal) for O=C1NC2c3ccccc3C(=O)N2c2c1cnn2-c1ccccc1 (stereo not given) is -35.4

differential viability (reversal) for O=C(NC1CCCCC1)C(c1ccco1)N(Cc1cccnc1)C(=O)C1COc2ccccc2O1 (stereo not given) is -7.03

differential viability (reversal) for `O=C(NC1=NCCS1)c1ccc2c(c1)C(=O)N(Cc1ccco1)C2=O` is 1.83

----------
METHOD SUMMARY: SK-BR-3 cell growth inhibitors, pilot screen, 24 h, human (AID 572);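 note: compound exposure lasted between 18 and 24 h rather than exactly 24 h; 100% = carrier-treated control wells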
CONDITION DESCRIPTION: SK-BR-3 viability, CellTiter-Glo luminescence, at 10 µM, stronger effect = lower value
Activity calls are given as the source filed them.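 The calls were made as follows: active = viability at or below 10% of carrier control in both of two separate runs; inconclusive = viability at or below 10% in only one of the two runs; inactive = the rest.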
ENDPOINT: viability

Completed entries (count: 5):
viability for `Cc1cc(NS(=O)(=O)c2ccc(NC(=O)COc3ccc(Cl)cc3)cc2)no1` is 100% (inactive)

viability for `COc1ccc(S(=O)(=O)N(CCN2CCOCC2)Cc2cc(OC)ccc2OC)cc1` is 91% (inactive)

viability for `O=C(c1cc(-c2ccco2)nn1-c1cccc(Cl)c1)N1CCCCC1` is 111% (inactive)

viability for `CCNCc1cc2cc(C)ccc2[nH]c1=O` is 106% (inactive)

viability for CC1CCc2c(sc3c2C2=NS(=O)(=O)CCN2C=N3)C1 (stereo unspecified) is 88.5% (inactive)

***
viability for `O=c1c[n+]([O-])c2ccccc2n1OCc1ccccn1` is 94% (inactive)

----------
METHOD SUMMARY: reversal of MRP1-mediated doxorubicin resistance, pilot screen, H69AR cells, doxorubicin co-treatment (AID 601)
CONDITION DESCRIPTION: H69AR cells, CellTiter-Glo, 72 h; compound alone cytotoxicity; at 10 µM
ENDPOINT: viability (%)
Only the number, expressed in %, is required.

viability for `Cc1cc(C(=O)Nc2ccc(S(=O)(=O)Nc3onc(C)c3C)cc2)cs1` is 99.4

viability for O=C(O)C1C2C=CC(C3CC23)C1C(=O)NCCc1ccccc1 (stereo unspecified) is 98

viability for `Cc1cc(C)nc(SC2=CS(=O)(=O)c3ccccc32)n1` is 14.8

viability for `Clc1ccc(-n2nnnc2Sc2ncnc3sccc23)cc1` is 1.29

viability for `Oc1c(Cl)cc(Cl)c2c1NCCC2` is 68.8

Query compound follows.
viability for COc1ccc(-c2nnc(SCC(=O)Nc3sc4c(c3C#N)CCC4)n2CC2CCCO2)cc1 (stereo unspecified) is 93.8

----------
STUDY TARGET: Receptor tyrosine-protein kinase erbB-2 (Homo sapiens) (UniProt P04626)
Sequence (P04626 whole entry, looked up): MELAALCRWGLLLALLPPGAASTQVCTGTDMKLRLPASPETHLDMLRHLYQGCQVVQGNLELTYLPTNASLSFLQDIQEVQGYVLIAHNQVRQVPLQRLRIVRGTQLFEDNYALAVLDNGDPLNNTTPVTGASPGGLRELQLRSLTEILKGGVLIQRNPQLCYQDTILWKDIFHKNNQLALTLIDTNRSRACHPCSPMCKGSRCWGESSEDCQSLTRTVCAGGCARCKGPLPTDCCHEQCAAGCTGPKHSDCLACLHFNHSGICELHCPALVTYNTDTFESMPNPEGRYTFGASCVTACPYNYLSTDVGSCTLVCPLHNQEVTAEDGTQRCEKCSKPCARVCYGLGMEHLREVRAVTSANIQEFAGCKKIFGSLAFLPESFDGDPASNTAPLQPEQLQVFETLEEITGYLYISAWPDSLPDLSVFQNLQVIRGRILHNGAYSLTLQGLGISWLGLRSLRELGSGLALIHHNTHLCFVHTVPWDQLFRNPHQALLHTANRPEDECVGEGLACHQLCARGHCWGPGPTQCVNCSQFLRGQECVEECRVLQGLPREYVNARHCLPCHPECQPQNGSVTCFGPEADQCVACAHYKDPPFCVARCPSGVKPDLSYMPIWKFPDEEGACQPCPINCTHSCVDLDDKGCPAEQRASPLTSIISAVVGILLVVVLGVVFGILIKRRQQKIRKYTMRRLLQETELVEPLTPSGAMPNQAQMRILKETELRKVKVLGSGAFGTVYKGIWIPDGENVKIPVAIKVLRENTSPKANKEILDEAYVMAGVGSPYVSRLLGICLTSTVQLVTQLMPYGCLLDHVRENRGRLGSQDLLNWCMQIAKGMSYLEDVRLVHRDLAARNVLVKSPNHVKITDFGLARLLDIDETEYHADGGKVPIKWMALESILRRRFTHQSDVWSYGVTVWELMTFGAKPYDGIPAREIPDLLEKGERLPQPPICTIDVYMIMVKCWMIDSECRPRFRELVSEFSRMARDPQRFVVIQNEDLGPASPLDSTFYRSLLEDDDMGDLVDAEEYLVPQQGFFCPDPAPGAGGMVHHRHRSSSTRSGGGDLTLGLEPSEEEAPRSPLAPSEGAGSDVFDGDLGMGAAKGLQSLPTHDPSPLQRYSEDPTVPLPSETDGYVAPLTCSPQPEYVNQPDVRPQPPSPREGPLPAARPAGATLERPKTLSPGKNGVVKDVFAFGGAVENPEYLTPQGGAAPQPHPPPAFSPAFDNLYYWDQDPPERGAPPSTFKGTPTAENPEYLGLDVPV
METHOD SUMMARY: reducers of endogenous Her2 protein level, primary screen, SKBR3 breast tumor cells, AlphaScreen, ATP viability (AID 461);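 for Her2 level: lower value means less Her2 protein in the cells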;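 for viability: percent of carrier control wells set as 100% viability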
CONDITION DESCRIPTION: 18-24 h, at 10 µM, stronger effect = lower value
ENDPOINT: Her2 level (%)
Only the number, expressed in %, is required.

Her2 level for `COc1ccc(/C=N/n2cnnc2SCc2ccc(OC)cc2)cc1` is 90.5

Her2 level for `COc1cc(C(=O)Nc2nc(-c3cccs3)cs2)cc(OC)c1OC` is 82

***
Her2 level for `Cc1sc2nc(SCc3nc4ccccc4[nH]3)n(Cc3ccco3)c(=O)c2c1C` is 92.5

Her2 level for `Cc1cc(C(=O)CSCCCn2c(=O)[nH]c3ccccc32)c(C)n1C` is 98

Her2 level for `O=C(NCc1nnc(SCC(=O)N2CCC(Cc3ccccc3)CC2)o1)c1ccccc1F` is 96.5

Her2 level for `COc1ccc(C)cc1S(=O)(=O)N(C)CC(=O)Nc1ccc2c(c1)OCO2` is 98
